- Experimental System: human recombinant Dipeptidyl peptidase IV enzyme (hrDPP IV) (Homo sapiens, UniProt P27487)
- Construct: purchased R&D systems
- Sequence (P27487 whole entry): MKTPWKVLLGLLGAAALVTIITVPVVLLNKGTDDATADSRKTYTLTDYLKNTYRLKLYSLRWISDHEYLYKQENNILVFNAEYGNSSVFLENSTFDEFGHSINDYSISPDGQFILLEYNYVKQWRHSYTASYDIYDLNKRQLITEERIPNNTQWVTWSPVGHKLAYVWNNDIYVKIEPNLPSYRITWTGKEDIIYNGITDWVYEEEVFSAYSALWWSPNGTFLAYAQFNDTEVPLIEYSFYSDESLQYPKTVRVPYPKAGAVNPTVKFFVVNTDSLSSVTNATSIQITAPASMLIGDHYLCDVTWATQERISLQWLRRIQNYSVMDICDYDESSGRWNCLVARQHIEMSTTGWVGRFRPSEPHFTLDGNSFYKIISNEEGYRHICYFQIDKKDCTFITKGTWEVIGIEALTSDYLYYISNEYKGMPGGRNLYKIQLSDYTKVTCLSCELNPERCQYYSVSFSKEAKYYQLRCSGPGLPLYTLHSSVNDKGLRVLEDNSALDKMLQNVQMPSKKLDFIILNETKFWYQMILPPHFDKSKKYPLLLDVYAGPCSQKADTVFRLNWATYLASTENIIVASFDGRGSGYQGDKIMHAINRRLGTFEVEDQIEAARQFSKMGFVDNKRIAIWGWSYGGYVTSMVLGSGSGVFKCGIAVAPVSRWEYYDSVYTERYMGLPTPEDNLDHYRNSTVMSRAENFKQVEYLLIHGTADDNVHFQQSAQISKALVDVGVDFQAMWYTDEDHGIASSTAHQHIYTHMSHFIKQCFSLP
- Assay Protocol: DPP IV assay, cleavage of H-Gly-Pro-AMC by human recombinant DPP-IV enzyme
- Assay type: biochemical
- Condition Info: 300 nM compound concentration
Property Measured: inhibition at 0.3 µM (%)

Sample records with inhibition at 0.3 µM:
Compound String	Unit Abbreviation	inhibition at 0.3 µM
CC1(C)[C@@H](Cn2cc(CO)nn2)CC[C@@]1(C)NCC(=O)N1C[C@@H](F)C[C@H]1C#N	%	60.5
CC1(C)[C@H](Cc2noc(-c3ccncc3)n2)CC[C@]1(C)NCC(=O)N1C[C@@H](F)C[C@H]1C#N	%	92.6

I. CC1(C)[C@@H](C(=O)N2CCCCC2)CC[C@@]1(C)NCC(=O)N1C[C@@H](F)C[C@H]1C#N
II. Cc1noc([C@H]2CC[C@@](C)(NCC(=O)N3C[C@@H](F)C[C@H]3C#N)C2(C)C)n1
Returns: the argument ( I or II ) having the larger inhibition at 0.3 µM. Mark your answer with the label of the selected entry. I
(I: 73.2%, II: 15%)

a. CC1(C)[C@@H](CNc2ncccc2C#N)CC[C@@]1(C)NCC(=O)N1C[C@@H](F)C[C@H]1C#N
b. CC(C)(C)c1nc(C[C@@H]2CC[C@](C)(NCC(=O)N3C[C@@H](F)C[C@H]3C#N)C2(C)C)no1
Looking at recorded values for inhibition at 0.3 µM, does a or b come in lower? Answer with the label corresponding to your selection. a

###

- Experimental System: human recombinant Dipeptidyl peptidase 8 enzyme (hrDPP 8) (Homo sapiens, UniProt Q6V1X1)
- Construct: purchased R&D systems
- Sequence (Q6V1X1 whole entry): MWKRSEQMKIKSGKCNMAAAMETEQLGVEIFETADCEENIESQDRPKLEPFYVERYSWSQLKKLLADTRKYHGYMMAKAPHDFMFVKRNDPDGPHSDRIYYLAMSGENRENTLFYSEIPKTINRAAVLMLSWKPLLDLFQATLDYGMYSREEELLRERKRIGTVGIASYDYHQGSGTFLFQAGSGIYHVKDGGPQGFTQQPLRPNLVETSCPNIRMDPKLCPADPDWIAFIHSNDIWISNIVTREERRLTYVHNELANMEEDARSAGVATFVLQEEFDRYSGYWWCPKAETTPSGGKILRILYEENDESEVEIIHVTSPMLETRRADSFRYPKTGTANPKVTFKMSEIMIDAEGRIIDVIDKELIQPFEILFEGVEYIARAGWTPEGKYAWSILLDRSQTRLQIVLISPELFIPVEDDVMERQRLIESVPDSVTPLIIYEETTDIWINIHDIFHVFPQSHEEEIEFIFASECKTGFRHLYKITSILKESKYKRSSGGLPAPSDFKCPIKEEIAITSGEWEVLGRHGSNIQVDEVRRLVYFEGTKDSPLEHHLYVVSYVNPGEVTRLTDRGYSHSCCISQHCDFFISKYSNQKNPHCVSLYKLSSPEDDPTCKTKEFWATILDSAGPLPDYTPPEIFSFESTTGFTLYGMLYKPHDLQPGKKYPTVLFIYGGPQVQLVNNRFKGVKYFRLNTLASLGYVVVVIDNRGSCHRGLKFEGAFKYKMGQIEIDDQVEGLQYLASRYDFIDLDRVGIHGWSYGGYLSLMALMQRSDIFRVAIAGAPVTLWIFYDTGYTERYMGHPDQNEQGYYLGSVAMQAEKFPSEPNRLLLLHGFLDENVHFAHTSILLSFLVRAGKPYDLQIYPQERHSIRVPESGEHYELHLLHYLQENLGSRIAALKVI
- Assay Protocol: DPP 8 assay, cleavage of H-Ala-Pro-AFC
- Type: biochemical
- Condition Info: human recombinant DPP 8; read-out: DPP 8 (cell printed in μM in the Selectivity column)
Property Measured: IC50

For the molecule CC1(NCC(=O)N2C[C@@H](F)C[C@H]2C#N)CCC(CS(=O)(=O)c2ccc(S(C)(=O)=O)cc2)C1(C)C (stereo in doubt) , report IC50. > 300 µM

###

- Experimental System: human recombinant Dipeptidyl peptidase 8 enzyme (hrDPP 8) (Homo sapiens, UniProt Q6V1X1)
- Construct: purchased R&D systems
- Assay Protocol: DPP 8 assay, cleavage of H-Ala-Pro-AFC
- Assay type: biochemical
- Condition Info: selectivity for DPP-IV over DPP 8
Property Measured: Selectivity (Fold) DPP 8

Compound String	Value Reported
CC1(C)[C@@H](NCC(=O)N2C[C@@H](F)C[C@H]2C#N)CC[C@@]1(C)c1nc(-c2ccncc2)no1	>550 Fold
CC1(C)[C@H](NCC(=O)N2C[C@@H](F)C[C@H]2C#N)CC[C@]1(C)c1nc(-c2cccnc2)no1	>1800 Fold

Fill: Selectivity (Fold) DPP 8 (human recombinant Dipeptidyl peptidase 8 enzyme (hrDPP 8) (Homo sapiens, UniProt Q6V1X1)) for this compound CC1(C)[C@H](CN2CCOCC2)CC[C@]1(C)NCC(=O)N1C[C@@H](F)C[C@H]1C#N >10000 Fold

Write Selectivity (Fold) DPP 8 of CC1(C)[C@H](NCC(=O)N2C[C@@H](F)C[C@H]2C#N)CC[C@]1(C)c1nc(-c2ccc(F)cc2)no1 ; system used: human recombinant Dipeptidyl peptidase 8 enzyme (hrDPP 8) (Homo sapiens, UniProt Q6V1X1) >450 Fold

Report its Selectivity (Fold) DPP 8 with human recombinant Dipeptidyl peptidase 8 enzyme (hrDPP 8) (Homo sapiens, UniProt Q6V1X1) as the test system: CC1(C)[C@H](Cn2cncn2)CC[C@]1(C)NCC(=O)N1C[C@@H](F)C[C@H]1C#N >27000 Fold

###

- Experimental System: human recombinant Dipeptidyl peptidase IV enzyme (hrDPP IV) (Homo sapiens, UniProt P27487)
- Construct: purchased R&D systems
- Assay Protocol: DPP IV assay, cleavage of H-Gly-Pro-AMC by human recombinant DPP-IV enzyme
- Type: biochemical
- Condition Info: 300 nM compound concentration
Property Measured: inhibition at 0.3 µM (%)

Example cases with answers are listed next.
Compound	Experimental System	Unit Abbreviation	Value Reported
CC1(C)[C@H](Cc2noc(CO)n2)CC[C@]1(C)NCC(=O)N1C[C@@H](F)C[C@H]1C#N [Example 60]	human recombinant Dipeptidyl peptidase IV enzyme (hrDPP IV) (Homo sapiens, UniProt P27487)	%	94.7
CC(C)c1nc(C[C@@H]2CC[C@](C)(NCC(=O)N3C[C@@H](F)C[C@H]3C#N)C2(C)C)no1 [Example 61, methanesulfonate]	human recombinant Dipeptidyl peptidase IV enzyme (hrDPP IV) (Homo sapiens, UniProt P27487)	%	96.2
CC1(C)[C@@H](CN2CCCCC2)CC[C@@]1(C)NCC(=O)N1C[C@@H](F)C[C@H]1C#N [Example 39]	human recombinant Dipeptidyl peptidase IV enzyme (hrDPP IV) (Homo sapiens, UniProt P27487)	%	45.9
CC1(C)[C@H](Cc2noc(C(F)(F)F)n2)CC[C@]1(C)NCC(=O)N1C[C@@H](F)C[C@H]1C#N [Example 56]	human recombinant Dipeptidyl peptidase IV enzyme (hrDPP IV) (Homo sapiens, UniProt P27487)	%	95.7

P. CC1(C)[C@@H](CNS(C)(=O)=O)CC[C@@]1(C)NCC(=O)N1C[C@@H](F)C[C@H]1C#N [Example 17]
Q. CC1(C)[C@H](CNS(C)(=O)=O)CC[C@]1(C)NCC(=O)N1C[C@@H](F)C[C@H]1C#N [Example 18]
R. CC1(C)[C@]2(C)CC[C@@]1(NCC(=O)N1C[C@@H](F)C[C@H]1C#N)COC2 [Example 82]
Arrange these compounds by their inhibition at 0.3 µM, starting with the largest number. Could you list the labels in the order requested? Q, P, R
(Q: 84.9%, P: 46.6%, R: 22.4%)

###

- Experimental System: DPP-IV (Homo sapiens, UniProt P27487)
- Construct: from tissue; host or cells: human plasma (per the earlier reading of the assay)
- Sequence (P27487 39-766 limits assumed): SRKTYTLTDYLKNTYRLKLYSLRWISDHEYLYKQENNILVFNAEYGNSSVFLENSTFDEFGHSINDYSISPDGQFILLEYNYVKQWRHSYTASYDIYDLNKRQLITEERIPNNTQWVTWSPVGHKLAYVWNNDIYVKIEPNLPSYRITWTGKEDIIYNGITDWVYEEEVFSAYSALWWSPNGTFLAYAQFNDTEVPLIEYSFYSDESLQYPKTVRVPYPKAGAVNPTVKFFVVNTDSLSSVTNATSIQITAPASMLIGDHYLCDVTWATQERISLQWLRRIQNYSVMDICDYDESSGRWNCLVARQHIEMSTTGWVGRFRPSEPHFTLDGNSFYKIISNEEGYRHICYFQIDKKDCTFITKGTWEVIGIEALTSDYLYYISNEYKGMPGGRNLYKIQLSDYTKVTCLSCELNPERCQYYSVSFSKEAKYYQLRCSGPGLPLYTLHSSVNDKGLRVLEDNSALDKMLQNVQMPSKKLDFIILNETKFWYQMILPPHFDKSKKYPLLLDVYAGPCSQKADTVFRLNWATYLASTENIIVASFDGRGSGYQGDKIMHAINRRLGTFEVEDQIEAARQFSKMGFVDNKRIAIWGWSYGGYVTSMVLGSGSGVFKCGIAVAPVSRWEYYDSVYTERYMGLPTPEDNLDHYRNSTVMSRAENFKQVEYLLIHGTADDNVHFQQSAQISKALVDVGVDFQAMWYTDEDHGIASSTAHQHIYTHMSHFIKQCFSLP
- Assay Protocol: DPP-IV inhibition, compounds screened by using human plasma
- Format: biochemical
- Condition Info: screened by using human plasma (starred examples); 300 nM compound concentration
Property Measured: inhibition at 0.3 µM (%)

Compound	Experimental System	Unit Abbreviation	Value Reported
CC1(C)[C@H](Cn2cncn2)CC[C@]1(C)NCC(=O)N1C[C@H](F)C[C@H]1C#N [Example 5]	DPP-IV (Homo sapiens, UniProt P27487)	%	4.1

P. CC1(C)[C@@H](c2nc(-c3ccc(F)cc3)no2)CC[C@@]1(C)NCC(=O)N1C[C@@H](F)C[C@H]1C#N [Example 48]
Q. CN1C[C@]2(C)CC[C@](NCC(=O)N3C[C@H](F)C[C@H]3C#N)(C1)C2(C)C [Example 77]
R. CC(C)c1noc([C@H]2CC[C@@](C)(NCC(=O)N3C[C@@H](F)C[C@H]3C#N)C2(C)C)n1 [Example 52]
I would appreciate it if you could sort these 3 compounds by inhibition at 0.3 µM, starting from the smallest number. List the labels in the requested order. P, Q, R
(P: 4.46%, Q: 13.4%, R: 29.2%)

###

Structures can show the parent of a compound that is named as a salt.
Property Measured: melting point

Compound	Property Measured	Value Reported
CC(C)c1noc([C@]2(C)CC[C@H](NCC(=O)N3C[C@@H](F)C[C@H]3C#N)C2(C)C)n1 [Example 67]	melting point	82 to 85 °C
CC1(C)[C@H](Cc2noc(-c3ccncc3)n2)CC[C@]1(C)NCC(=O)N1C[C@@H](F)C[C@H]1C#N [Example 63]	melting point	180 to 184 °C
CN1C(=O)[C@]2(C)CC[C@](NCC(=O)N3CCC[C@H]3C#N)(C1=O)C2(C)C [Example 75]	melting point	141 to 144 °C

Tell me measured melting point for CC1(C)[C@@H](CNc2ncccc2C#N)CC[C@@]1(C)NCC(=O)N1C[C@@H](F)C[C@H]1C#N [Example 26] please. 96 to 99 °C

State its melting point for this compound: CC1(C)[C@@H](Cn2cncn2)CC[C@@]1(C)NCC(=O)N1CCC[C@H]1C#N (as salt: methanesulfonate) [Example 9] 150 to 155 °C

Identify melting point associated with the compound CC1(C)[C@H](c2nc(-c3ccc(F)cc3)no2)CC[C@]1(C)NCC(=O)N1C[C@@H](F)C[C@H]1C#N [Example 49] 160 to 163 °C

Please supply the value of reported melting point for the item CC1(C)[C@@H](CS(=O)(=O)c2ccc(S(C)(=O)=O)cc2)CC[C@@]1(C)NCC(=O)N1C[C@H](F)C[C@H]1C#N [Example 43] 163 to 166 °C

Give a short answer stating reported melting point for Cc1noc([C@H]2CC[C@@](C)(NCC(=O)N3C[C@@H](F)C[C@H]3C#N)C2(C)C)n1 [Example 50] . 147 to 151 °C

Supply reported melting point belonging to this compound: CC1(C)[C@H](Cn2cnnn2)CC[C@]1(C)NCC(=O)N1C[C@@H](F)C[C@H]1C#N [Example 32] 151 to 154 °C

Indicate its recorded melting point; the compound in question is CC1(C)[C@@H](NCC(=O)N2CCC[C@H]2C#N)CC[C@@]1(C)c1nc(-c2ccc(F)cc2)no1 (as salt: methanesulfonate) [Example 66] 206 to 211 °C
